Target: FAD-linked sulfhydryl oxidase ALR (Homo sapiens, UniProt P55789)
Sequence (P55789 whole entry): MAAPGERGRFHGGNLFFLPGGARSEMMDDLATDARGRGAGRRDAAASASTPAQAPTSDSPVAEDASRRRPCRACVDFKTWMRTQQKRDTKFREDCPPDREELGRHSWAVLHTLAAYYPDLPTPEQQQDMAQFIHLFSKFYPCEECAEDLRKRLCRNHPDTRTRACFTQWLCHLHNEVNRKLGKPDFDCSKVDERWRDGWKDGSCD
Assay: inhibitors of human ALR sulfhydryl oxidase, dose response, biochemical, H2O2 detection, luminescence, cherry-pick (AID 493248)
Calls of active or inactive are those of the source. Cut-off read from the data, not from the text of the source: actives have a measured AC50 and inactives only a lower limit.
value.kind: AC50

Answered cases to consult:
Req: Please tell me: AC50 of `CC(=O)N1CCN(C(=S)c2ccc(N(C)C)cc2)CC1` , system FAD-linked sulfhydryl oxidase ALR (Homo sapiens, UniProt P55789)?
Resp: 1.13 µM (active)

Req: Please tell me: AC50 of `Cc1nc(C(F)(F)F)c(C(=O)O)cc1-c1nc(-c2ccccc2)cs1` , system FAD-linked sulfhydryl oxidase ALR (Homo sapiens, UniProt P55789)?
Resp: 11.4 µM (active)

Req: Please tell me: AC50 of COc1ccc(N2C(=O)CSC2c2ccc([N+](=O)[O-])cc2)cc1 (stereo unspecified) , system FAD-linked sulfhydryl oxidase ALR (Homo sapiens, UniProt P55789)?
Resp: 5.9 µM (active)

Req: Please tell me: AC50 of `COc1ccc2[nH]c3c(=S)[nH]cnc3c2c1` , system FAD-linked sulfhydryl oxidase ALR (Homo sapiens, UniProt P55789)?
Resp: 0.035 µM (active)

Req: Please tell me: AC50 of `COc1cc(/C=N/NC(=O)c2cc3ccccc3[nH]2)ccc1O` , system FAD-linked sulfhydryl oxidase ALR (Homo sapiens, UniProt P55789)?
Resp: 0.393 µM (active)

Next:
Req: Please tell me: AC50 of `Nc1ccc(N2CCN(C(=O)c3ccco3)CC2)cc1` , system FAD-linked sulfhydryl oxidase ALR (Homo sapiens, UniProt P55789)?
Resp: 0.719 µM (active)

Req: Please tell me: AC50 of `COc1ccc(OC)c2c(C)cc(N3CCCN(C)CC3)nc12` , system FAD-linked sulfhydryl oxidase ALR (Homo sapiens, UniProt P55789)?
Resp: 22 µM (active)

Req: Please tell me: AC50 of `O=C(O)c1ccc(CSc2nc3ccccc3o2)cc1` , system FAD-linked sulfhydryl oxidase ALR (Homo sapiens, UniProt P55789)?
Resp: 51.7 µM (active)
